- Tested on: HeLa Kyoto;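 also: HeLa Kyoto cells arrested at G1/S by double thymidine block, proteins quantified by TMT10plex mass spectrometry in mild NP-40 versus SDS extracts, three biological replicates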
- protocol notes: solubility in G1/S (NP-40 vs SDS abundance) (log2 ratio); higher = more soluble
- condition: cell cycle stage: G1/S
// label = yes if solubility in G1/S (log2) is not less than 0.2, otherwise no

Check out these entries, answers already filled in.
sequence_text="MAKAGDKSSSSGKKSLKRKAAAEELQEAAGAGDGATENGVQPPKAAAFPPGFSISEIKNKQRRHLMFTRWKQQQRKEKLAAKKKLKKEREALGDKAPPKPVPKTIDNQRVYDETTVDPNDEEVAYDEATDEFASYFNKQTSPKILITTSDRPHGRTVRLCEQLSTVIPNSHVYYRRGLALKKIIPQCIARDFTDLIVINEDRKTPNGLILSHLPNGPTAHFKMSSVRLRKEIKRRGKDPTEHIPEIILNNFTTRLGHSIGRMFASLFPHNPQFIGRQVATFHNQRDYIFFRFHRYIFRSEKKVGIQELGPRFTLKLRSLQKGTFDSKYGEYEWVHKPREMDTSRRKFHL [RPF1]" test_target="HeLa Kyoto" category_label=no
sequence_text="MAPRLCSISVTARRLLGGPGPRAGDVASAAAARFYSKDNEGSWFRSLFVHKVDPRKDAHSTLLSKKETSNLYKIQFHNVKPEYLDAYNSLTEAVLPKLHLDEDYPCSLVGNWNTWYGEQDQAVHLWRFSGGYPALMDCMNKLKNNKEYLEFRRERSQMLLSRRNQLLLEFSFWNEPQPRMGPNIYELRTYKLKPGTMIEWGNNWARAIKYRQENQEAVGGFFSQIGELYVVHHLWAYKDLQSREETRNAAWRKRGWDENVYYTVPLVRHMESRIMIPLKISPLQ [NIPSNAP1]" test_target="HeLa Kyoto" category_label=no
sequence_text="MAQESPKNSAAEIPVTSNGEVDDSREHSFNRDLKHSLPSGLGLSETQITSHGFDNTKEGVIEAGAFQGSPAPPLPSVMSPSRVAASRLAQQGSDLIVPAGGQRTQTKSGPVILADEIKNPAMEKLELVRKWSLNTYKCTRQIISEKLGRGSRTVDLELEAQIDILRDNKKKYENILKLAQTLSTQLFQMVHTQRQLGDAFADLSLKSLELHEEFGYNADTQKLLAKNGETLLGAINFFIASVNTLVNKTIEDTLMTVKQYESARIEYDAYRTDLEELNLGPRDANTLPKIEQSQHLFQAHKEKYDKMRNDVSVKLKFLEENKVKVLHNQLVLFHNAIAAYFAGNQKQLEQTLKQFHIKLKTPGVDAPSWLEEQ [ARFIP1]" test_target="HeLa Kyoto" category_label=yes

// inclusive: solubility in G1/S (log2) at least 0.2? input: MDNYADLSDTELTTLLRRYNIPHGPVVGSTRRLYEKKIFEYETQRRRLSPPSSSAASSYSFSDLNSTRGDADMYDLPKKEDALLYQSKGYNDDYYEESYFTTRTYGEPESAGPSRAVRQSVTSFPDADAFHHQVHDDDLLSSSEEECKDRERPMYGRDSAYQSITHYRPVSASRSSLDLSYYPTSSSTSFMSSSSSSSSWLTRRAIRPENRAPGAGLGQDRQVPLWGQLLLFLVFVIVLFFIYHFMQAEEGNPF [EMD] no

// inclusive: solubility in G1/S (log2) at least 0.2? input: MFVARSIAADHKDLIHDVSFDFHGRRMATCSSDQSVKVWDKSESGDWHCTASWKTHSGSVWRVTWAHPEFGQVLASCSFDRTAAVWEEIVGESNDKLRGQSHWVKRTTLVDSRTSVTDVKFAPKHMGLMLATCSADGIVRIYEAPDVMNLSQWSLQHEISCKLSCSCISWNPSSSRAHSPMIAVGSDDSSPNAMAKVQIFEYNENTRKYAKAETLMTVTDPVHDIAFAPNLGRSFHILAIATKDVRIFTLKPVRKELTSSGGPTKFEIHIVAQFDNHNSQVWRVSWNITGTVLASSGDDGCVRLWKANYMDNWKCTGILKGNGSPVNGSSQQGTSNPSLGSTIPSLQNSLNGSSAGRKHS [SEH1L] no

// inclusive: solubility in G1/S (log2) at least 0.2? input: MSFVAYEELIKEGDTAILSLGHGAMVAVRVQRGAQTQTRHGVLRHSVDLIGRPFGSKVTCGRGGWVYVLHPTPELWTLNLPHRTQILYSTDIALITMMLELRPGSVVCESGTGSGSVSHAIIRTIAPTGHLHTVEFHQQRAEKAREEFQEHRVGRWVTVRTQDVCRSGFGVSHVADAVFLDIPSPWEAVGHAWDALKVEGGRFCSFSPCIEQVQRTCQALAARGFSELSTLEVLPQVYNVRTVSLPPPDLGTGTDGPAGSDTSPFRSGTPMKEAVGHTGYLTFATKTPG [TRMT61A] no
